biological target: Bcl-xL protein (Homo sapiens, UniProt Q07817); construct: made in house; assay: Surface plasmon resonance assay, immobilized Bcl-xL; assay type: binding; details: SPR; 10 μM compound; Bcl-xL immobilized 10000 RU
Sequence (Q07817 whole entry): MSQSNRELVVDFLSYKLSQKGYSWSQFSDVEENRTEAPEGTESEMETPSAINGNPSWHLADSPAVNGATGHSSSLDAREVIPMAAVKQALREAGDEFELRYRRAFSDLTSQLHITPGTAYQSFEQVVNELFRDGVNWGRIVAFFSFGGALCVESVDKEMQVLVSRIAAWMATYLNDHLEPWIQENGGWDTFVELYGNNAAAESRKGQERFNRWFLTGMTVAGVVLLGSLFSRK
property-label: binding level to Bcl-xL protein in SPR

Challenge: Would you mind telling me what binding level to Bcl-xL protein in SPR value was observed for O=C(CSc1nc(=O)c2ccccc2[nH]1)c1ccc(O)c(O)c1 ?
Response given: almost no binding

Challenge: What does the record list as binding level to Bcl-xL protein in SPR for COc1ccc2nc3cc(Cl)ccc3c(-c3ccc([N+](=O)[O-])cc3)c2c1 ?
Response given: almost no binding
